# ASSAY TEXT: NCI Yeast Anticancer Drug Screen. Data for the mec2-1 strain (AID 157)
# MEASUREMENT CONTEXT: S. cerevisiae mec2-1 strain, at 50.0 µM, active compounds read high
Compounds without any hit were thinned out: in the full panel of roughly 79,000, 15% have a hit.
PROPERTY LABEL: growth inhibition (%)
Answers are plain numbers, in %.

COMPOUND	VALUE UNITS	growth inhibition
Nc1ccc2c(c1)Cc1cccc(N)c1-2	%	11.2
S=C(Nc1ccc(Cl)cc1)Nc1ccc(Cc2ccc(NC(=S)Nc3ccc(Cl)cc3)cc2)cc1	%	36.2
CCCCCCCC/C=C\CCCCCCCCOC(=O)CC(O)C(=O)OCCCCCCCC/C=C\CCCCCCCC (configuration not stated)	%	-4.05
CSCCCS/C1=C/CCCCCCCCCC1	%	11
COc1ccc(C2OC3=C(Nc4ccc(Cl)cc4N3)C2=O)c(OC)c1 (configuration not stated)	%	-30.9

// each listed compound needs a value for growth inhibition
1. Cc1cc2c(c3c1c(=O)c1ccccc1n3C)C=CC(C)(C)O2
2. O=[N+]([O-])c1cccc(CC(=S)N2CCOCC2)c1
3. COC(=O)CCBr
4. O=C(/C=C/c1ccco1)c1ccc(O)c(C(=O)O)c1

Result ::
1. -0.2
2. -3.8
3. 8.15
4. -1.25

Hi, could you look up growth inhibition for each item in my list?
1. Cc1nc2ccccc2c(=O)n1NC(=S)Nc1ccc(Cl)cc1
2. COc1cc(/C=N/n2c(C)cc(C)c(C#N)c2=O)cc(OC)c1OC
3. CNC(=O)C1CCCN1C(=O)C(Cc1cnc[nH]1)NC(=O)C1CCC(=O)N1 (configuration not stated)

Result ::
[-31.2, 12.9, -13.9]

* * *

For each of the molecules below, state its growth inhibition.
# ASSAY TEXT: NCI Yeast Anticancer Drug Screen. Data for the cln2 rad14 strain (AID 165);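 further: 0% = growth equal to vehicle treated cultures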
# MEASUREMENT CONTEXT: S. cerevisiae cln2 rad14 strain, at 50.0 µM, active compounds read high
This is part of a sample that, as a whole, favours compounds with a hit. Of some 79,000 tested, about 15% had one in any assay. The source made the active and inactive calls. No stated cut-off is given here; in the data, active means growth inhibition above about 70%; inactive means the rest.

MOLECULE	growth inhibition
Cc1ccc(S(=O)(=O)Nc2ccccc2-c2nc3c(Cl)ccc(Cl)c3c(=O)o2)cc1	-10.3% (inactive)
NC(=O)C(N)C(N)=NCc1ccccc1 (configuration not stated)	-7.25% (inactive)
O=c1[nH]ncn2nc3ccccc3c12	-53.1% (inactive)
COC(=O)/C(C#N)=C(C)/C=C/c1ccc(OC)cc1	-15.6% (inactive)
O=C1c2cc([N+](=O)[O-])ccc2-c2c(F)cccc21	-32% (inactive)

Record growth inhibition for all entries; do not skip any.
1. O=C(Nc1cc([N+](=O)[O-])ccc1Cl)c1ccc(F)cc1
2. Nc1c(I)cc(C(=O)O)c(O)c1I

Result ::
1. 17.8% (inactive)
2. 4.65% (inactive)

* * *

Hi there, I'd appreciate the recorded growth inhibition for every entry that follows.
# ASSAY TEXT: NCI Yeast Anticancer Drug Screen. Data for the cln2 rad14 strain (AID 165);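 further: 0% = growth equal to vehicle treated cultures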
# MEASUREMENT CONTEXT: S. cerevisiae cln2 rad14 strain, at 50.0 µM, active compounds read high
Compounds without any hit were thinned out: in the full panel of roughly 79,000, 15% have a hit.
Numbers only, in %.

Worked cases, growth inhibition given:
COMPOUND	VALUE UNITS	growth inhibition
COc1ccc(OC)c(NC(C)=O)c1	%	-3.05
COc1ccc(CCN2C(CC(=O)c3ccccc3)CCCC2CC(=O)c2ccccc2)cc1 (stereo not given)	%	-0.8
CCC(C)C(NS(=O)(=O)Cc1ccccc1)C(=O)O (stereo not given)	%	10.9
COc1ccc2ncc(C)c(CO)c2c1	%	-50.9
CC1CN(C(C)(C)C)CO1 (stereo not given)	%	8.3
CCOC(=O)c1c(O)c(Cc2ccccc2)c(=O)n2c1[nH]c1cc(C)c(C)cc12	%	15.5
COc1ccc(/C(Cl)=C(\C=O)c2cc(OC)c(OC)c(OC)c2)cc1OC	%	13.8
ClCCCOCc1ccccc1	%	16.4

Would you be so kind as to report growth inhibition for each listed record?
1. O=C1CC(c2ccccc2)Oc2ccccc21 (stereo not given)
2. CCCCCN(CCCCC)CC(O)c1cccc2c1cc(Br)c1ccccc12 (stereo not given)
3. C/C(=N/NC(=O)c1ccccc1O)c1ccc(/C(C)=N\NC(=O)c2ccccc2O)c2nc3cc(C)c(C)cc3nc12
4. O=C1CCCCCCCS(=O)(=O)C1
5. COC(=O)c1ccc(F)cc1
6. CC(=O)Oc1ccc(-c2c3ccccc3cc3c2ccc2ccccc23)cc1

Result ::
1. 8.2
2. 8.45
3. 4.65
4. -19.6
5. -1.45
6. -5.05

Query :: Bench note: what growth inhibition did `Clc1nnc(Cl)c2ncccc12` show?
Result :: -2.95

* * *

# ASSAY TEXT: NCI Yeast Anticancer Drug Screen. Data for the mlh1 rad18 strain (AID 175)
# MEASUREMENT CONTEXT: S. cerevisiae mlh1 rad18 strain growth inhibition; at 50.0 µM; active compounds read high
This is part of a sample that, as a whole, favours compounds with a hit. Of some 79,000 tested, about 15% had one in any assay.
PROPERTY LABEL: growth inhibition (%)
Answers are plain numbers, in %.

For orientation, consider the following solved cases.
COMPOUND	OBSERVED MEASUREMENT
C1CCC(C2CCCC[N-]2)[N-]C1.[Cl][Cu][Cl] (configuration not stated)	13.7
NCC(O)CSc1ccccc1 (configuration not stated)	-6.8

Hi, could you look up growth inhibition for each item in my list?
1. C=CC(=N)N
2. COc1ccc(C2=NN(C(C)=O)C(c3cc(OC)c(OC)cc3N)S2)cc1OC (configuration not stated) (tested in a mixture with another compound)
3. CCOc1c(OC)cc(-c2nnc(SCCN(CC)CC)o2)cc1OC
4. CCOC(=O)c1cc(C)nc2c1c(=O)n(-c1ccccc1)c(=O)n2CCCCN1CCN(c2ccccc2)CC1
5. COC12C=CC(CC1)C1C(=O)C=CC(=O)C12 (configuration not stated)
6. CCCCCCC(O)C/C=C\CCCCCCCC(=O)O (configuration not stated)

Result ::
1. 7.6
2. 30.1
3. -7.05
4. -29.1
5. -21.4
6. -15.9

Below are 4 compounds. Give each one its growth inhibition.
1. COc1ccc(/C(=N\N=C(N)N)C(c2ccc(OC)cc2)C2OC(=O)c3ccccc32)cc1 (configuration not stated)
2. COc1cc(C(=O)Nc2c3ccccc3nc3ccccc23)cc(OC)c1OC
3. Cc1ccc(Cc2ccc(CCc3ccc(Cc4ccc(C)cc4)cc3)cc2)cc1
4. CCOC(=O)CC[Si](CC)(CC)CC

Result ::
[-18.7, -14.6, 11.5, -1.45]

Working through the 6 compounds below one at a time, give growth inhibition for each.
1. O=C(Nc1cc(-c2ccccc2)[nH]n1)c1ccccc1Cl
2. O=[N+]([O-])c1ccccc1C=Nc1ccc2nc(SCc3ccccc3)sc2c1
3. CCC(=O)OCCC(C)C
4. COc1ccc2cc(OC)ccc2c1
5. CCCCCCCI
6. C/C(=N/C(=O)NN)c1ccc(Cl)cc1

Result ::
1: 28.3; 2: -16.8; 3: 17.4; 4: 14; 5: 23.8; 6: 31.9

* * *

Give growth inhibition for every item shown.
# ASSAY TEXT: NCI Yeast Anticancer Drug Screen. Data for the mec2-1 strain (AID 157)
# MEASUREMENT CONTEXT: S. cerevisiae mec2-1 strain, at 50.0 µM, active compounds read high
Compounds without any hit were thinned out: in the full panel of roughly 79,000, 15% have a hit.
One number for each entry, in %.

COMPOUND	growth inhibition [%]
O=C(O)C(CS)(c1ccccc1)c1ccccc1	8.25
CCOC(=O)CCCCCSc1n[nH]c(=O)[nH]c1=O	-11
Nc1cccc2ncccc12	-9.95
Nc1nnc(Sc2n[nH]c(=O)[nH]c2=O)s1	-2.6
COC(=O)C1=C(C)N(NC(=O)Nc2ccccc2)C2(N)N(NC(=O)Nc3ccccc3)C(C)=C(C(=O)OC)C12C(=O)OC (stereo not given)	5.1

Please go through the list and note growth inhibition for each compound.
1. COC(=O)CC1=CCCc2ccccc21
2. COc1ccc(C)cc1CC(=O)O
3. Oc1cc2c(cc1C(c1ccc(Cl)cc1)N1CCCCC1)OCO2 (stereo not given)

Result ::
1: 1.55; 2: 3.05; 3: -1.6

* * *

# ASSAY TEXT: NCI Yeast Anticancer Drug Screen. Data for the cln2 rad14 strain (AID 165);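 further: 0% = growth equal to vehicle treated cultures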
# MEASUREMENT CONTEXT: S. cerevisiae cln2 rad14 strain, at 50.0 µM, active compounds read high
# Experimental: Growth inhibition of yeast strains with defined genetic alterations is measured as a screen for potential anti-cancer activity. Selected strains with alterations in DNA damage repair or cell cycle control were exposed to compounds and growth inhibition was measured relative to vehicle treated controls. The strain used in this assay is cln2 rad14
Compounds without any hit were thinned out: in the full panel of roughly 79,000, 15% have a hit. *1 amine or outer side, *2 acyl side, *3 side chain or, on linkers, in order; H or OH if unused. Where a SMILES comes first, the peptide text is derived from it. Bridges are numbered along the chain shown (N, C = ends). Roman numbers before positions name the chains, in order. [ ]: non-standard residue; d: D form. Actinocin(9to1) = Cc1c2oc3c(C)ccc(C(=O)[*:1])c3nc-2c(C(=O)[*:2])c(N)c1=O; NMeF = CN[CH](Cc1ccccc1)C(=O)O; Sar = CNCC(=O)O
PROPERTY LABEL: growth inhibition (%)
Answers are plain numbers, in %.

As a guide, the following entries are already answered.
COMPOUND	growth inhibition, %
CC(NC(=O)C1CCCN1C(=O)OCc1ccccc1)C(=O)O (stereo not given)	2.1
COc1ccc2c(c1)N(S(=O)(=O)c1ccc(C)cc1)C[C@@H]1c3cc(O)c(OCc4ccccc4)cc3O[C@H]21	-6.8
CCOC(=O)C(/C=N/Nc1ccc([N+](=O)[O-])cc1[N+](=O)[O-])Oc1cccc(OC)c1 (stereo not given)	-15.1
CCOC(=O)C1C2CC3C(CC21C)C3(C)C (stereo not given)	-2.5
Nc1cccn2cnnc12	17.4

The following compounds each have a reported value; give each one's growth inhibition.
1. S=C(N1CCN(c2cccc(Cl)c2)CC1)N1CCN(c2cccc(Cl)c2)CC1
2. O=C(O)CCCC[P+](c1ccccc1)(c1ccccc1)c1ccccc1
3. Brc1cccc(CCOCc2ccccc2)c1

Result ::
9.6
7.5
2.05

I need growth inhibition for every entry listed below, if you could help.
1. CCOC(=O)/C(C(C)=O)=C1\C(=O)c2ccccc2-c2ccccc21
2. Cc1cc(Cl)c(=O)n(-c2ccc(Cl)cc2)n1
3. Cn1cnc([N+](=O)[O-])c1C(=O)NCc1ccccc1
4. O=C1O[C@H]2C3C4CCC(C4[C@@H]2I)[C@H]13 (stereo not given in full)
5. COC(=O)/C=C1\CCC(C)O1 (stereo not given)
6. O=C1OC(=O)C2=C1C1C=CC2CC1
7. C=CCOC(=O)c1c(Cl)c(Cl)c(Cl)c(Cl)c1C(=O)O

Result ::
1. -19.2
2. 4.7
3. -20.8
4. 19.9
5. 8
6. 0
7. 25.9

Below are some compounds; for each one, tell me its growth inhibition.
1. Cc1nc(N)sc1C
2. CCN(CC)C(=O)c1c(-c2ccccc2)nc(-c2ccccc2)c(C(=O)N(CC)CC)c1Cl
3. NC1=C(Br)C(=O)c2[nH]c(=O)[nH]c(=O)c2C1=O

Result ::
1: 7.7; 2: 21.6; 3: -4

The following compounds each have a reported value; give each one's growth inhibition.
1. O=C(OC(CN1CCCCC1)CN1CCCc2ccccc21)C(O)C(O)C(O)(CO)C(=O)OC(CN1CCCCC1)CN1CCCc2ccccc21 (stereo not given)
2. Cc1ccccc1OCC(C)OC(N)=O (stereo not given)
3. COc1ccc2cc(OC)ccc2c1
4. O=c1[nH]cnc2ncnn12

Result ::
1.8
-16.4
22
19.2

// for each compound below, give its growth inhibition
1. CC1(C)[C@H]2Cc3c(ccc4c3C(=O)OC4=O)[C@@H]1C2
2. COc1ccn(C2OCCC(OC(C)=O)C2O)c(=O)n1 (stereo not given)
3. Nc1cccc2cccc(N)c12
4. CC(=O)NC1CCC2CCCCC2C1 (stereo not given)
5. CCC(=O)OCc1ccc(Cl)cc1
6. COC(=O)C1(C)CCCC2(C)C1CCC1(O)C2CC2OC2(C(C)C)C1O (stereo not given)
7. CC(C)(C)c1ccc(C(=O)NCSCC(NC(=O)CCC(N)C(=O)O)C(=O)NCC(=O)O)cc1 (stereo not given)
8. CCOC(=O)C1CC(=O)N(Cc2ccccc2)C(=O)N1 (stereo not given)

Result ::
1. -30.6
2. -22.9
3. 15.3
4. -61
5. 8.6
6. -31.4
7. -7.75
8. -16.9

Give growth inhibition for each listed item.
1. CCCCC(O)(CCC)CCCC
2. O=C(O)CCSc1ccc([N+](=O)[O-])cc1
3. NC(=O)CC[n+]1ccc(C(=O)O)cc1
4. Cc1c2oc3c(C)ccc(C(=O)NC4C(=O)NC(C(C)C)C(=O)N5CCCC5C(=O)N(C)CC(=O)N(C)C(Cc5ccccc5)C(=O)OC4C)c3nc-2c(C(=O)NC2C(=O)NC(C(C)C)C(=O)N3CCCC3C(=O)N(C)CC(=O)N(C)C(Cc3ccccc3)C(=O)OC2C)c(N)c1=O (stereo not given) (I: TVP[Sar][NMeF] / II: TVP[Sar][NMeF]; ester I:1-I:C, II:1-II:C; linker I:N-II:N via Actinocin(9to1); configuration not given here)
5. CC(C)(C)OC(=O)NO

Result ::
1. -36.9
2. -44.1
3. 0.4
4. 2.15
5. 1.75
